MEASURED_ON: Kappa-type opioid receptor (Mus musculus) (UniProt P33534)
Sequence (P33534 whole entry): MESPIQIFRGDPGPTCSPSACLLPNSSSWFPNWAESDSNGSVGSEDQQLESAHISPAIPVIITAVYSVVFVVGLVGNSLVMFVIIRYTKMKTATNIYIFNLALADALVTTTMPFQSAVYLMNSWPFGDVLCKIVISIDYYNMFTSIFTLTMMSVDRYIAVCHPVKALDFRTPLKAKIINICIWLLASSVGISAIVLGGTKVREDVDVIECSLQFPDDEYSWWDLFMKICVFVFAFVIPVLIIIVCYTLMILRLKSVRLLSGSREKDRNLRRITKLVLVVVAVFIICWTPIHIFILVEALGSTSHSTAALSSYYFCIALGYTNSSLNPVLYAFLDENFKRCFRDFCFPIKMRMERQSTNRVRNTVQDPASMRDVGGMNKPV
METHOD_DESCRIPTION: Antagonism of opioid analgesia using a mouse writhing model to block U-50,488 ([…]) induced kappa-opioid receptor subcutaneously
Assay type: functional, organism-based
This section presents compounds with their documented AD50 values.

Consider the reported AD50 for these compounds:
{"columns": ["COMPOUND", "MEASURED_ON", "ENDPOINT_LABEL", "TEST_RESULT"],
 "data": [
  ["Cc1cccc(CCN2CC[C@@](C)(c3cccc(O)c3)[C@@H](C)C2)c1", "Kappa-type opioid receptor (Mus musculus) (UniProt P33534)", "AD50", "0.95 mg/kg"],
  ["C[C@H]1CN(CC2CCCO2)CC[C@@]1(C)c1cccc(O)c1 (stereo not given in full)", "Kappa-type opioid receptor (Mus musculus) (UniProt P33534)", "AD50", "0.75 mg/kg"],
  ["C[C@H]1CN(Cc2ccoc2)CC[C@@]1(C)c1cccc(O)c1", "Kappa-type opioid receptor (Mus musculus) (UniProt P33534)", "AD50", "0.71 mg/kg"],
  ["C[C@H]1CN(CCOc2ccccc2)CC[C@@]1(C)c1cccc(O)c1", "Kappa-type opioid receptor (Mus musculus) (UniProt P33534)", "AD50", "> 40 mg/kg"],
  ["C[C@H]1CN(CCC(O)c2cccs2)CC[C@@]1(C)c1cccc(O)c1 (stereo not given in full)", "Kappa-type opioid receptor (Mus musculus) (UniProt P33534)", "AD50", "0.14 mg/kg"]
]}

What AD50 value was documented for this compound, CCN1CC[C@@](C)(c2cccc(O)c2)[C@@H](C)C1 ? > 1.25 mg/kg

What AD50 value was documented for this compound, C[C@H]1CN(CC(O)Cc2ccccc2)CC[C@@]1(C)c1cccc(O)c1 (stereo not given in full) ? 0.85 mg/kg

What AD50 value was documented for this compound, C[C@H]1CN(CCCc2cccs2)CC[C@@]1(C)c1cccc(O)c1 (stereo in doubt; 42) ? 0.25 mg/kg

What AD50 value was documented for this compound, COc1ccccc1CCCN1CC[C@@](C)(c2cccc(O)c2)[C@@H](C)C1 ? > 0.64 mg/kg

What AD50 value was documented for this compound, C[C@H]1CN(Cc2ccccc2)CC[C@@]1(C)c1cccc(O)c1 ? 0.45 mg/kg

----------
MEASURED_ON: Kappa-type opioid receptor (Rattus norvegicus) (UniProt P34975)
Sequence (P34975 whole entry): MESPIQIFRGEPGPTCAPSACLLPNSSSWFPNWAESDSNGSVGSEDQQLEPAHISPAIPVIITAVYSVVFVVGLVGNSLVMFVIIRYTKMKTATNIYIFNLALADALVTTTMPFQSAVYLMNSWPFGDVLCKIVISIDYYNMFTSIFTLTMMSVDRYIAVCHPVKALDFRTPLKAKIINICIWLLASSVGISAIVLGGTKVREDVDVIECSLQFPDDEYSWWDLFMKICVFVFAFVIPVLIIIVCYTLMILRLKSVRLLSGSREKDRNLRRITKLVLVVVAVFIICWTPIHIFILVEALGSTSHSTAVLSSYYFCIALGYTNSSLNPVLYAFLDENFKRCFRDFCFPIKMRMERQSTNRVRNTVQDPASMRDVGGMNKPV
METHOD_DESCRIPTION: Tested for the antagonism of kappa opioid receptor diuresis at a dose of 0.08 mg/kg subcutaneously
Format: functional, organism-based
Design: dose 0.08 mg/kg
ENDPOINT_LABEL: AD50
Quick note: unit goes after the number.

Consider the reported AD50 for these compounds:
{"columns": ["COMPOUND", "AD50"],
 "data": [
  ["Cc1cccc(CCCN2CC[C@@](C)(c3cccc(O)c3)[C@@H](C)C2)c1", "10 mg/kg"],
  ["C[C@H]1CN(CCCOc2ccccc2)CC[C@@]1(C)c1cccc(O)c1", "8.4 mg/kg"],
  ["C[C@H]1CN(CCc2ccncc2)CC[C@@]1(C)c1cccc(O)c1", "14 mg/kg"]
]}

What AD50 value was documented for this compound, C[C@H]1CN(CCc2cccc(F)c2)CC[C@@]1(C)c1cccc(O)c1 ? 1.4 mg/kg

What AD50 value was documented for this compound, C[C@H]1CN(CC(O)Cc2ccccc2)CC[C@@]1(C)c1cccc(O)c1 (stereo not given in full) ? 3.7 mg/kg

What AD50 value was documented for this compound, C[C@H]1CN(CCCCc2cccs2)CC[C@@]1(C)c1cccc(O)c1 ? 3.3 mg/kg

----------
This section presents compounds with their documented pKi values.
MEASURED_ON: Mu-type opioid receptor (Rattus norvegicus, UniProt P33535)
Sequence (P33535 whole entry): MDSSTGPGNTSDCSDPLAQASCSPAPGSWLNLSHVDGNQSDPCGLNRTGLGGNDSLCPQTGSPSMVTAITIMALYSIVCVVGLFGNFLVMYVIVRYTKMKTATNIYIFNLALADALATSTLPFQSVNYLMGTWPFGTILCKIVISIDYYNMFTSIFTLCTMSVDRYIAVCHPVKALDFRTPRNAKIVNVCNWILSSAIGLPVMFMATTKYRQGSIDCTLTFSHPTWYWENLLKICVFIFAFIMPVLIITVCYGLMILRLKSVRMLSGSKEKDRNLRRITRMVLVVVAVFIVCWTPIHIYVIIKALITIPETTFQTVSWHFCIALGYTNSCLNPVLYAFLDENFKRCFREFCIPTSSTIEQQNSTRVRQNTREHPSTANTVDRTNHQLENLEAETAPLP
METHOD_DESCRIPTION: Binding affinity towards mu-opioid receptor by displacement of [3H]NAL at 10 nM from rat brain homogenates
Format: tissue-based
Hey, just a heads up that pKi is the negative log base 10 of the concentration in molar.

{"columns": ["COMPOUND", "ENDPOINT_LABEL", "TEST_RESULT"],
 "data": [
  ["C[C@H]1CN(CC(O)Cc2ccccc2)CC[C@@]1(C)c1cccc(O)c1 (stereo partly specified)", "pKi", 7.06]
]}

What pKi value was documented for this compound, C[C@H]1CN(CCCc2ccsc2)CC[C@@]1(C)c1cccc(O)c1 ? 9.59

What pKi value was documented for this compound, C[C@H]1CN(CCc2cccc3ccccc23)CC[C@@]1(C)c1cccc(O)c1 ? 8.96

What pKi value was documented for this compound, Cc1ccccc1CCN1CC[C@@](C)(c2cccc(O)c2)[C@@H](C)C1 ? 7.05

What pKi value was documented for this compound, C[C@H]1CN(CC(O)c2ccccc2)CC[C@@]1(C)c1cccc(O)c1 (stereo partly specified) ? 7.32

What pKi value was documented for this compound, C[C@H]1CN(CC2CCCO2)CC[C@@]1(C)c1cccc(O)c1 (stereo partly specified) ? 7.59

What pKi value was documented for this compound, C[C@H]1CN(Cc2ccccc2)CC[C@@]1(C)c1cccc(O)c1 ? 7.19

What pKi value was documented for this compound, Cc1cccc(CCN2CC[C@@](C)(c3cccc(O)c3)[C@@H](C)C2)c1 ? 7.08

What pKi value was documented for this compound, C[C@H]1CN(CCc2ccncc2)CC[C@@]1(C)c1cccc(O)c1 ? 7.27

What pKi value was documented for this compound, C[C@H]1CN(CCc2cccc(F)c2)CC[C@@]1(C)c1cccc(O)c1 ? 8.49

What pKi value was documented for this compound, CC(CCCN1CC[C@@](C)(c2cccc(O)c2)[C@@H](C)C1)c1ccccc1 (stereo partly specified) ? 7.20

----------
MEASURED_ON: Mu-type opioid receptor (Rattus norvegicus)
METHOD_DESCRIPTION: Binding affinity towards mu opioid receptor by displacement of [3H]NAL from rat brain homogenates
Format: tissue-based
This section presents compounds with their documented log10 of Ki values.
Form field - Quantity: Ki; Unit: nM; Scale: log10

{"columns": ["LINE_NOTATION", "log10 of Ki"],
 "data": [
  ["COc1ccccc1CCCN1CC[C@@](C)(c2cccc(O)c2)[C@@H](C)C1", -0.02],
  ["CCCCCCN1CC[C@@](C)(c2cccc(O)c2)[C@@H](C)C1", -0.54],
  ["C[C@H]1CN(CCCc2ccccc2)CC[C@@]1(C)c1cccc(O)c1", -0.16],
  ["C[C@H]1CN(CCCCc2ccccc2)CC[C@@]1(C)c1cccc(O)c1", 0.30],
  ["C[C@H]1CN(Cc2ccco2)CC[C@@]1(C)c1cccc(O)c1", 0.76],
  ["CCN1CC[C@@](C)(c2cccc(O)c2)[C@@H](C)C1", 1.72],
  ["Cc1ccccc1CCCN1CC[C@@](C)(c2cccc(O)c2)[C@@H](C)C1", -0.21]
]}

Here's the next entry for you.
Provide value of log10 of Ki for this record tested with Mu-type opioid receptor (Rattus norvegicus): C[C@H]1CN(CCC(=O)c2cccs2)CC[C@@]1(C)c1cccc(O)c1 0.18

----------
MEASURED_ON: Kappa-type opioid receptor (Mus musculus)
METHOD_DESCRIPTION: Antagonism of opioid analgesia using a mouse writhing model to block U-50,488 ([…]) induced kappa-opioid receptor subcutaneously
Type: functional, organism-based
ENDPOINT_LABEL: AD50 (mg/kg)
The answer is to be given in mg/kg; state only the numeric part.

{"columns": ["COMPOUND", "AD50, mg/kg"],
 "data": [
  ["C[C@H]1CN(Cc2ccco2)CC[C@@]1(C)c1cccc(O)c1", 1.35]
]}

Here's the next entry for you.
What AD50 value was documented for this compound, C[C@H]1CN(CCCc2cccs2)CC[C@@]1(C)c1cccc(O)c1 (stereo in doubt; 41) ? 0.3

----------
This section presents molecules with their documented Ki values.
MEASURED_ON: Kappa-type opioid receptor (Cavia porcellus, UniProt P41144)
Sequence (P41144 whole entry): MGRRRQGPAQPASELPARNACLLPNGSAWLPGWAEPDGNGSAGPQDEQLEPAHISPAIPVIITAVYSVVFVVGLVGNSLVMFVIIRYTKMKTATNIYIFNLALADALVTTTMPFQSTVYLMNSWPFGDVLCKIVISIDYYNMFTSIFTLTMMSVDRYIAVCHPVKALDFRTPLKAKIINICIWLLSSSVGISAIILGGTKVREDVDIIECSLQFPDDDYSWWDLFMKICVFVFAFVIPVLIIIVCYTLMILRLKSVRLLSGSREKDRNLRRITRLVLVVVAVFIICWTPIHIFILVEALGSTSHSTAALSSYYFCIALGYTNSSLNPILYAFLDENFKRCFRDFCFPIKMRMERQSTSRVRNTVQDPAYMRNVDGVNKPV
METHOD_DESCRIPTION: Binding affinity towards kappa-opioid receptor by displacement of [3H]-EKC at from guinea pig cortical tissue
The answer is to be given in nM; state only the numeric part.

Consider the reported Ki for these molecules:
{"columns": ["MOLECULE", "VALUE_UNIT", "Ki"],
 "data": [
  ["C=CCN1CC[C@@](C)(c2cccc(O)c2)[C@@H](C)C1", "nM", 313],
  ["C[C@@H]1CN(CCC(=O)c2ccccc2)CC[C@]1(C)c1cccc(O)c1", "nM", 318],
  ["C[C@H]1CN(CCCc2cccs2)CC[C@@]1(C)c1cccc(O)c1 (stereo in doubt; 42)", "nM", 3.3]
]}

What Ki value was documented for this molecule, C[C@H]1CN(CCCc2ccco2)CC[C@@]1(C)c1cccc(O)c1 ? 14

What Ki value was documented for this molecule, C[C@H]1CN(CCCc2ccccc2)CC[C@@]1(C)c1cccc(O)c1 ? 15

What Ki value was documented for this molecule, C[C@H]1CN(CCC(=O)c2cccs2)CC[C@@]1(C)c1cccc(O)c1 ? 15

What Ki value was documented for this molecule, C[C@H]1CN(C)CC[C@@]1(C)c1cccc(O)c1 ? 833
